Test system: GM1 production in Jurkat cells
Assay Overview: cells
Format: cell-based
IC50 by entry:

Compound | System Under Test | IC50
COc1ccc(-c2ccc3c(c2)OCC(C)(C)C3NC(=O)O[C@@H]2CN3CCC2CC3)cc1C(F)(F)F (stereo partly drawn) [Example 210] | GM1 production in Jurkat cells | 18 nM
CC1(C)COc2cc(-c3cncc4ccccc34)ccc2C1NC(=O)O[C@@H]1CN2CCC1CC2 (stereo partly drawn) | GM1 production in Jurkat cells | 1.35 nM
COc1ccc(-c2ccc3c(c2)OCC(C)(C)C3NC(=O)O[C@@H]2CN3CCC2CC3)cc1C(F)(F)F (stereo partly drawn) [Example 188] | GM1 production in Jurkat cells | 4.59 nM
